The origin of these recorded values is ChEMBL document CHEMBL1151824.

// MIC lookup, one value per entry
- measurement.target: UniProtKB P22303
- Sequence (P22303 whole entry): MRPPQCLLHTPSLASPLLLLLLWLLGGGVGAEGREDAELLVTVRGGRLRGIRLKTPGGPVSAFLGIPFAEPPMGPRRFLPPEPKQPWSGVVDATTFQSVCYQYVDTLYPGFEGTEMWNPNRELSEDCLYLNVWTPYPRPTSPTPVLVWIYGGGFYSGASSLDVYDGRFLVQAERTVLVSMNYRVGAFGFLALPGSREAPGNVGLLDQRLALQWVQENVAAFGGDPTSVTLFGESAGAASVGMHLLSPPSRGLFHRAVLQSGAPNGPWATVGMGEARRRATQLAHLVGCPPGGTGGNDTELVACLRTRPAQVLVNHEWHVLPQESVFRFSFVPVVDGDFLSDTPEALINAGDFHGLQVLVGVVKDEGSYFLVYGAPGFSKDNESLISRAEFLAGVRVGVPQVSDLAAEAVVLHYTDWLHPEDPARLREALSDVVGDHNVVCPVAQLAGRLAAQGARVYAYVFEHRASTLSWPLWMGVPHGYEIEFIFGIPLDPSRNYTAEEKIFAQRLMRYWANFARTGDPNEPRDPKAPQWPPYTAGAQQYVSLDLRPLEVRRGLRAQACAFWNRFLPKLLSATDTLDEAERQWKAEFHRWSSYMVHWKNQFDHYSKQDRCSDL
- test.summary: Inhibition of AChE assessed as white zone of inhibition after 20 mins by TLC bioautography
measurement.kind: MIC (×10⁻¹ nmol)

In [3]: df
Out[3]:
                                   compound  measurement_target  measurement_kind  numeric_result
0  COC1=C(C)C(=O)O/C1=C1\O[C@@]23O[C@H]4C[C@@H]([C@H]2[C@@H]1C)N1CC[C@H]3[C@@]41C (stereo in doubt; 3)    UniProtKB P22303               MIC             2.9
1  COC1=C(C)C(=O)O/C1=C1\O[C@@]23O[C@H]4C[C@@H]([C@H]2[C@@H]1C)N1CC[C@H]3[C@@]41CC[C@@H](C)O (mixture of isomers)    UniProtKB P22303               MIC             2.5
2  COC1=C(C)C(=O)O/C1=C1\O[C@@]23O[C@H]4C[C@@H]([C@H]2[C@@H]1C)N1CC[C@H]3[C@@]41/C=C/C(C)O (mixture of isomers; 2)    UniProtKB P22303               MIC             2.5

###

// MIC lookup, one value per entry
- measurement.target: Acetylcholinesterase (Homo sapiens)
- test.summary: Inhibition of AChE assessed as white zone of inhibition after 20 mins by TLC bioautography
measurement.kind: MIC (×10⁻² nmol)

>>> df
                                   molecule  measurement_kind  numeric_result
0  COC1=C(C)C(=O)O/C1=C1\O[C@@]23O[C@H]4C[C@@H]([C@H]2[C@@H]1C)N1CC[C@H]3[C@@]41CCC(C)O (mixture of isomers)               MIC             2.5
1  CC/C=C/C12C3CC4C5[C@@H](C)/C(=C6/OC(=O)C(C)=C6OC)O[C@]5(O3)C1CCN42 (stereo partly drawn)               MIC             1.3
